- system tested: T1, rat BCMA on 293T-ratBCMA cells (rat)
- T1 construct: whole, on cells
- protocol text: FACS, 293T-ratBCMA cells
property: Bmax (MFI)
Give the number; MFI is assumed, so skip it.

Per the record, 9A5 (antibody, V domains shown, chicken HybriFree-derived antibody; also called Antibody 42) VH: AVTLDESGGGLQTPGGAVSLVCKASGFSISDYGMGWMRQAPGKGLQYVARIDHDGRYTDYGAVVKGRATISRDNGQSTVRLQLNNLRAEDTGTYYCTRGGGAASIDTWGHGTEVIVSS VL: ALTQPSSVSANPGETVKITCSGGGNYVGGYYYGWYQQKAPGSALVTLIYNNNNRPSNIPSRFSGSTSGSTSTLTITGVRAEDEAVYFCGSFDSSTDAIFGAGTTLTVL has Bmax (MFI) of 2780

Per the record, 10H1 (antibody, V domains shown, chicken HybriFree-derived antibody; also called Antibody 45) VH: AVTLDESGGGLQTPGGALSLVCKASGFTFSGYGMGWMRQAPGKGLEYVARINSAGSDTDYGAAVKGRATISRDNGQSTVRLQLNNLRAEDTATYFCTRGGGGASIDGWGHGTEVIVSS VL: ALTQPSSVSANPGETVKITCSGGGNYYGSYYYGWYQQKAPGSAPVTVIYNNNNRPSNIPSRFSGSKSGSTGTLTITGVQAEDEAVYFCGGFDSSSDAIFGAGTTLTVL has Bmax (MFI) of 4350

Per the record, 10E10 (antibody, V domains shown, chicken HybriFree-derived antibody; also called Antibody 46) VH: AVTLDESGGGLQTPGGGLSLVCKASGFTFSSYGMGWMRQAPGKGLEFVARINSGGSSYTDYGSAVKGRATISRDDGQSTVRLQLNNLRAEDTGIYYCTRGGGGASIDGWGHGTEVIVSS VL: ALTQPSSVSANPGETVKITCSGGGNYAGSYYYGWYQQKSPGSAPLTVIYNSNNRPSDIPSRFSGSLSGSTGTLTITGVRAEDEAVYFCGGFDSSTDAIFGAGTTLTVL has Bmax (MFI) of 906

Per the record, 9E12 (antibody, V domains shown, chicken HybriFree-derived antibody; also called Antibody 43) VH: AVTLDESGGGLQTPGGGLSLVCKASGFTFSDYGLGWMRQAPGKGLEYVARINSAGSGTYYGSAVDGRATISRDNGQSTVRLQLNNLRAEDTGTYYCTRGGGGASIDGWGHGTEVIVSS VL: ALTQPSSVSANPGETVKITCSGGGSYYGSYYYGWYQQKSPGSAPVTLIYNNNNRPSDIPSRFSGSTSGSTGTLTITGVRAEDEAVYYCGSFDSSTDAIFGAGTTLTVL has Bmax (MFI) of 4690

Per the record, 10F4 (antibody, V domains shown, chicken HybriFree-derived antibody; also called Antibody 37) VH: AVTLDESGGGLQTPGGALSLVCKASGFTFSGYNMGWVRQAPGKGLEYVAGITYGTGSYTAYGAAVKGRATISRDNGQSTLRLQLNNLRAEDTATYYCARGGGLNSYGCSGANIDAWGHGTEVIVSS VL: ALTQPSSVSANLGGTVKITCSGGGNYFGSYYYGWYQQKAPGSAPVTVIYNNNNRPSDIPSRFSGSTSGSTSTLTISGVRAEDEAVYFCGGFDSSTDAIFGAGTTLTVL has Bmax (MFI) of 410

Per the record, 9H1 (antibody, V domains shown, chicken HybriFree-derived antibody; also called Antibody 44) VH: AVTLDESGGGLQTPGGALSLVCKGSGFTFSDYGMGWMRQAPGKGLQYVARINSAGSDTNYGSAVKGRATISRDDGQSTVRLQLSSLRAEDTGIYYCTRGGGGASIDGWGHGTEVIVSS VL: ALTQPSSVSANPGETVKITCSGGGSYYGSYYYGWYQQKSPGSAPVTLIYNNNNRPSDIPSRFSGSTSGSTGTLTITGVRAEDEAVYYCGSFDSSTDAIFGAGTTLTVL has Bmax (MFI) of 3450
